Hello, the source for this data is PubChem BioAssay (NCI), in case you need it.

Test system: UACC-62 melanoma
Experiment: NCI tumour cell line growth inhibition, 48 h
For each of the compounds below, state its log10 TGI.
On a log10 scale: recorded TGI, unit µM.

| compound | assayed.system | log10 TGI |
| --- | --- | --- |
| Cc1sccc1C(=S)Nc1ccc(Cl)c(/C=N/OC(C)(C)C)c1 | UACC-62 melanoma | 1.53 |
| O=C(CC(=O)Nc1ccccc1Cl)NNC(c1cc(N=Nc2ccc(Br)cc2)ccc1O)P(O)O (stereo unspecified) | UACC-62 melanoma | 0.79 |
| C[N+]1(C)C/C(=C/c2ccc(F)cc2)C(=O)/C(=C\c2ccc(F)cc2)C1 | UACC-62 melanoma | 1.53 |
| CCCCC1=C(Br)C(=C(Br)Br)OC1=O | UACC-62 melanoma | 0.81 |

Hey, quick one: what's log10 TGI for each of these?
1. Cc1ccc2nc(C=Nc3ccccc3Cl)cc(C)c2c1
2. Cc1cc(OCc2n[nH]c(=S)n2/N=C/c2ccc(F)cc2)ccc1Cl
3. COc1cc(/C=C2\CC3C4CCC5=CC(=O)CC[C@]5(C)C4CC[C@]3(C)C2=O)ccc1OCCCn1ccnc1 (stereo partly specified)
4. COc1ccc2c(CCC(c3ccccc3)c3ccccc3)c3[n+](cc2c1OC)CCc1cc2c(cc1-3)OCO2
5. CCOC(=O)[C@@H]1C2C(=C[C@H]3[C@H]1C(=O)N1CCCC[C@H]31)CCCN2C(=O)OCc1ccccc1 (stereo partly specified)

1. 1.48
2. 1.62
3. 1.40
4. 0.25
5. 1.59

Hello, I am looking for reported log10 TGI with UACC-62 melanoma for COC(=O)c1c2c(c[n+]([O-])c1C)C(=O)C=C(NCc1ccccc1)C2=O . Could you help? -0.52

---

Tested on: HL-60(TB) leukemia
Experiment: NCI tumour cell line growth inhibition, 48 h; in the data active = GI50 below about 0.43 µM; inactive = the rest
Select the matching outcome among active, inactive

| compound | assayed.system | label |
| --- | --- | --- |
| O=C1/C(=C\c2ccc(Br)cc2)CN(C(=O)c2ccccc2F)C/C1=C\c1ccc(Br)cc1 | HL-60(TB) leukemia | inactive |

Test call, this compound: N#CC(C#N)=C/C=C(\Sc1ccc(F)c(Cl)c1)c1ccc(Cl)cc1 active

Same lookup for O=C1OCC2=C1C(c1cccc(F)c1)c1cc3c(cc1N2CCO)CCC3 (centres undefined) , please. active

Same again, this time with COc1cccc2c1C(CO)N1C(C#N)C3CC(C(=O)O)C(C1C2)N3C (centres undefined) active

Continue with COc1cc(-n2cncc2-c2ccc3ccccc3c2)cc(OC)c1OC active

Now give it for Cc1cc(C)c(CNC(=O)c2cc(-c3ccc(CN4CCOCC4)cc3)cc3c2cnn3C2CCCC2)c(=O)[nH]1 too. inactive

For CCCCCCCCCCCCCCCCCCOP(=O)([O-])OC1CC[N+](C)(C)CC1 then? inactive

What about COC(=O)c1c2c(c[n+]([O-])c1C)C(=O)C=C(NCc1ccccc1)C2=O ? active

Moving on to C=C(C)[C@@H]1CC[C@]2(CNCCO)CC[C@]3(C)[C@H](CC[C@@H]4[C@@]5(C)CCC(N)[C@@](C)(CO)[C@@H]5CC[C@]43C)[C@@H]12 (some centres undefined) inactive

---

Test system: MDA-MB-231 breast
Test: NCI tumour cell line growth inhibition, 48 h; in the data active = GI50 below about 0.43 µM; inactive = the rest
Select the correct class. Options are active, inactive and nothing else.

Observe how each entry below is paired with its result.
| molecule | label |
| --- | --- |
| O=C1/C(=C\c2ccc(Br)cc2)CN(C(=O)c2ccccc2F)C/C1=C\c1ccc(Br)cc1 | inactive |
| CC(=O)OCC1OC(OC2=C(CC=C(C)C)C(=O)c3ccccc3C2=O)C(OC(C)=O)C(OC(C)=O)C1OC(C)=O (configuration not stated) | inactive |
| N#CC(C#N)=C/C=C(\Sc1ccc(F)c(Cl)c1)c1ccc(Cl)cc1 | inactive |
| COc1cc(C(=O)/C=C/c2c(-c3cccs3)nc3sc(C)cn23)cc(OC)c1OC | inactive |
| COc1cccc2c1C(=O)c1c(O)c3c(c(O)c1C2=O)C[C@@](O)(C(=O)CO)C[C@@H]3OC1CC(N)C(O)C(C)O1 (some centres not stated) | inactive |

Identify the outcome logged in this assay for the molecule shown: CC#Cc1nc2ccccc2c(=O)[nH]1 inactive

Param item: COc1cc(-n2cncc2-c2ccc3ccccc3c2)cc(OC)c1OC active

Next molecule: CCN1CCN(c2cc(C)nc(N(CCCNc3ccnc4cc(Cl)ccc34)Cc3cccs3)n2)CC1 inactive

What do you get for COc1c(OCCCN2CCOCC2)ccc2c3n(c(=NC(=O)c4cnc(N)nc4)nc12)CCN3 ? active

---

Would you kindly list TGI for each of these compounds?
Tested on: LOX IMVI melanoma
Assay: NCI tumour cell line growth inhibition, 48 h

| compound | TGI |
| --- | --- |
| Cc1cc2c(cc1C)N1C(Cl)=C3CCCCC3=C(C#N)C1N2 (stereo not drawn) | 4.37 µM |
| COc1c(Br)cc(Br)c(OC)c1-c1ccc[nH]1 | > 100 µM |
| CC1CC2=C(C(=O)O1)C(c1ccccc1)Nc1ccccc1N2 (stereo not drawn) | > 100 µM |

Give TGI for each listed item.
1. O=[N+]([O-])c1ccc(N=Nc2c(O)ccc3cc(S(=O)(=O)O)cc(S(=O)(=O)O)c23)cc1
2. C[C@H](CCC(=O)NN)[C@H]1CC[C@H]2[C@@H]3CC[C@@H]4C[C@H](O)CC[C@]4(C)[C@H]3CC[C@]12C
3. O=C1/C(=C/c2cccc(O)c2)COc2ccccc21

1. > 100 µM
2. > 100 µM
3. 3.92 µM

---

Test system: OVCAR-5 ovarian
Test: NCI tumour cell line growth inhibition, 48 h
reported.endpoint: GI50

| input.smiles | assayed.system | GI50 |
| --- | --- | --- |
| O=C1/C(=C\c2ccc(Br)cc2)CN(C(=O)c2ccccc2F)C/C1=C\c1ccc(Br)cc1 | OVCAR-5 ovarian | 2450 nM |
| O=c1c(O)c(O)c1=O.[NH2-].[NH2-].[NH2-].[NH2-].[NH2-].[Ru+5] | OVCAR-5 ovarian | > 100000 nM |
| CCCCCCCCCCCCCCCCCCOP(=O)([O-])OC1CC[N+](C)(C)CC1 | OVCAR-5 ovarian | 2250 nM |

Provide reported GI50 for each item, in the same order as listed.
1. O=C1NC(=NCCc2cccs2)S/C1=C\c1ccc2ncccc2c1
2. CC(C)=CC(=O)OCC(=O)O[C@@H]1C[C@]2(C(C)C)O[C@@]1(C)[C@@H]1CC[C@@H](C)[C@H]1[C@@H]2OC(=O)/C=C/c1ccccc1

1: > 20400 nM; 2: > 62700 nM

---

For each entry below, report its TGI value.
Tested on: HOP-62 NSCLC
Experiment: NCI tumour cell line growth inhibition, 48 h

| compound | reported.endpoint | val |
| --- | --- | --- |
| COc1cc(C2c3cc4c(cc3OC(N3CCCCC3)C2C)OCO4)cc(OC)c1OC (stereo not given) | TGI | 10.2 µM |
| CC(=O)OCC1OC(OC2=C(CC=C(C)C)C(=O)c3ccccc3C2=O)C(OC(C)=O)C(OC(C)=O)C1OC(C)=O (stereo not given) | TGI | 33.6 µM |

Here are 3 compounds. What values of TGI were reported for them?
1. Cc1cc(C)c(CNC(=O)c2cc(-c3ccc(CN4CCOCC4)cc3)cc3c2cnn3C2CCCC2)c(=O)[nH]1
2. Cc1[nH]c2c(C)cccc2c1C1Cc2ccccc2N1 (stereo not given)
3. Cn1cc(C2=C(Sc3ccccc3)C(=O)NC2=O)c2ccccc21

["39.3 µM", "32.3 µM", "> 25 µM"]

---

Tested on: HCT-116 colon
Assay: NCI tumour cell line growth inhibition, 48 h; in the data active means GI50 below about 0.43 µM; inactive means the rest
Answer with one of the outcomes 1 (yes) (active), 0 (no) (inactive)

Completed entries (count: 5):
| compound | assayed.system | label |
| --- | --- | --- |
| CC[C@]12C=CCN3CC[C@]4(C(=C(C(=O)OC)C1)Nc1cc(OC)c(OC(C)=O)cc14)[C@@H]32 | HCT-116 colon | 1 (yes) |
| Nc1nc2c(c3cnccc13)C(c1cccc(Br)c1)Cc1cnccc1-2 (stereo unspecified) | HCT-116 colon | 0 (no) |
| COc1cc(C(=O)/C=C/c2c(-c3cccs3)nc3sc(C)cn23)cc(OC)c1OC | HCT-116 colon | 0 (no) |
| CCCCCCCCCCCCCCCCCCOP(=O)([O-])OC1CC[N+](C)(C)CC1 | HCT-116 colon | 0 (no) |
| Cc1cccc(NC(=O)c2sc3nc4c(cc3c2N)CCCC4)c1 | HCT-116 colon | 0 (no) |

# fetch the recorded call for CC1=C(SCCC(=O)OCC(=O)NCCC[Te]c2ccccc2)C(=O)c2ccccc2C1=O here 0 (no)

And then COc1ccc2c(CCC(c3ccccc3)c3ccccc3)c3[n+](cc2c1OC)CCc1cc2c(cc1-3)OCO2 , what is it? 1 (yes)
